All figures here come from ChEMBL document CHEMBL1145276.

# tested.target: Adenosine kinase (Homo sapiens, UniProt P55263)
# Sequence (P55263 whole entry): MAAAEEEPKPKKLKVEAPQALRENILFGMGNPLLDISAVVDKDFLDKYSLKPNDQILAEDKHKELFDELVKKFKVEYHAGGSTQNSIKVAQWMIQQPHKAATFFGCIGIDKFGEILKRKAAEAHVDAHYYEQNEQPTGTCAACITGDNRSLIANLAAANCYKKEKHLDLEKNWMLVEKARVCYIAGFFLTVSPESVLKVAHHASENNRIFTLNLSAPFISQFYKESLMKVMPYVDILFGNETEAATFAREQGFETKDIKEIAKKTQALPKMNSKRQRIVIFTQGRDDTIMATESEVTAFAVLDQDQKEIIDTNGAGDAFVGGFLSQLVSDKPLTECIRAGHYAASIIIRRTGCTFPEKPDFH
# assay.text: Inhibitory concentration against Adenosine Kinase (enzyme)
pIC50: −log10 of the molar value.
Param threshold (7) applies to pIC50; output criterion met when value >= threshold, criterion not met when value < threshold.

Solved cases (4 shown):
* Cc1ccc(-c2cc3c(N)ncnc3nc2-c2ccsc2)cc1 | criterion met
* Cc1ccc(-c2cc3c(N)ncnc3nc2-c2cccs2)cc1 | criterion met
* CCCCCc1cc2c(N)ncnc2nc1-c1ccc(N(C)C)cc1 | criterion met
* Cc1ccc(-c2cc3c(N)ncnc3nc2-c2ccc(-c3cncnc3)cc2)cc1 | criterion not met

Q: Say whether CC(C)Cc1cc2c(N)ncnc2nc1-c1ccc(N(C)C)cc1 shows pIC50 of 7 or more.
A: criterion not met

Q: Item COc1ccc(-c2cc3c(N)ncnc3nc2-c2ccc(N(C)C)cc2)cc1Br with pIC50 of 7 or above?
A: criterion met

Q: # bool: pIC50 of CN(C)c1ccc(-c2cc3c(N)ncnc3nc2-c2ccncc2)cc1 >= 7
A: criterion not met

====

# tested.target: Adenosine kinase (Homo sapiens, UniProt P55263)
# assay.text: Inhibitory concentration against Adenosine Kinase (intact cells)
reported.endpoint: IC50 (nM)
Express it in nM; write the number only.

As a guide, the following entries are already answered.
* CCCCc1cc2c(N)ncnc2nc1-c1cccs1 | 767
* COc1ccc(-c2cc3c(N)ncnc3nc2-c2cccs2)cc1Br | 375

Now for another entry.
Q: Any idea what its IC50 is? The compound is Cc1ccc(-c2cc3c(N)ncnc3nc2-c2cccs2)cc1
A: 800

====

# tested.target: UniProt:P55263
# assay.text: Inhibitory concentration against Adenosine Kinase (intact cells)
Measured pIC50 by item
Field pIC50 (float): negative decimal logarithm of the concentration in molar.

- CN(C)c1ccc(-c2nc3ncnc(N)c3cc2Cc2ccccc2)cc1: 6.19

Q: Quick check: pIC50 of CN(C)c1ccc(-c2cc3c(N)ncnc3nc2-c2ccncc2)cc1 ?
A: 5.38

Q: // query pIC50 value for entry CCCCCc1cc2c(N)ncnc2nc1-c1ccc(N(C)C)cc1
A: 6.15

Q: Requested read-out: pIC50. Entry: Nc1ncnc2nc(-c3cccs3)c(Cc3cccc(Br)c3)cc12
A: 6.19

Q: Find the recorded pIC50 belonging to COc1ccc(-c2cc3c(N)ncnc3nc2-c2ccc(N(C)C)cc2)cc1OC and report it.
A: 6.46

Q: Look up pIC50 for this molecule: COc1ccc(-c2cc3c(N)ncnc3nc2-c2ccc(N(C)C)cc2)cc1Br
A: 6.65

Q: GET /values?readout=pIC50&item= COc1ccc(-c2cc3c(N)ncnc3nc2-c2cccs2)cc1OC
A: 6.52

Q: Would you kindly share the measured pIC50 for CN(C)c1ccc(-c2cc3c(N)ncnc3nc2-c2ccc(N(C)C)cc2)cc1 ?
A: 6.44

====

# tested.target: UniProtKB P55263
# assay.text: Inhibitory concentration against Adenosine Kinase (enzyme)
reported.endpoint: pIC50
Quick note: pIC50 means taking -log10 of the concentration in moles per liter.

Here are 3 molecules together with their reported answers.
• Cc1ccc(-c2cc3c(N)ncnc3nc2-c2ccc(/C=C/c3ccccn3)cc2)cc1 = 6.94
• CCCCc1cc2c(N)ncnc2nc1-c1cccs1 = 7.96
• CN(C)c1ccc(-c2nc3ncnc(N)c3cc2CCc2ccccc2)cc1 = 6.36

Q: For COc1ccc(-c2cc3c(N)ncnc3nc2-c2cccs2)cc1Br , what is its reported pIC50?
A: 8.10

Q: Item COc1ccc(-c2cc3c(N)ncnc3nc2-c2ccc(N(C)C)cc2)cc1OC has what recorded pIC50?
A: 7.35

====

# tested.target: Adenosine kinase (Homo sapiens, UniProt P55263)
# assay.text: Inhibitory concentration against Adenosine Kinase (intact cells)
Listing of recorded IC50 by entry.

Example entries and their recorded answers appear below.
* CN(C)c1ccc(-c2ccc3c(N)ncnc3n2)cc1 | > 10000 nM
* Cc1ccc(-c2cc3c(N)ncnc3nc2-c2ccsc2)cc1 | > 1000 nM

Q: Return reported IC50; argument: CN(C)c1ccc(-c2nc3ncnc(N)c3cc2-c2ccc(Br)cc2)cc1
A: > 1000 nM

====

# tested.target: Adenosine kinase (Homo sapiens)
# assay.text: Inhibitory concentration against Adenosine Kinase (enzyme)
Consider the cut-off 0.2 µM. If the recorded IC50 is strictly smaller, the label is true; if not, the label is false.

- Cc1ccc(-c2cc3c(N)ncnc3nc2-c2cc3ccccc3o2)cc1: false
- CN(C)c1ccc(-c2nc3ncnc(N)c3cc2Cc2ccccc2)cc1: true
- CN(C)c1ccc(-c2nc3ncnc(N)c3cc2-c2ccc(Br)cc2)cc1: true
- CN(C)c1ccc(-c2cc3c(N)ncnc3nc2-c2ccc(N(C)C)cc2)cc1: true

Q: Answer whether the compound COc1cccc(-c2cc3c(N)ncnc3nc2-c2ccc(N(C)C)cc2)c1 has IC50 strictly less than 0.2 µM
A: false

====

# tested.target: Adenosine kinase (Homo sapiens, UniProt P55263)
# assay.text: Inhibitory concentration against Adenosine Kinase (enzyme)
reported.endpoint: pIC50
Entry type: numeric. Quantity: pIC50, the -log10 of concentration in molar units.

Example results:
- CN(C)c1ccc(-c2cnc3c(N)ncnc3n2)cc1: 6.36
- Nc1ncnc2nc(-c3nccs3)c(Cc3cccc(Br)c3)cc12: 6.05
- CN(C)c1ccc(-c2nc3ncnc(N)c3cc2CCCc2ccccc2)cc1: 5.65
- CN(C)c1ccc(-c2nc3ncnc(N)c3cc2-c2cccc(Br)c2)cc1: 7.15
- Nc1ncnc2nc(-c3cccs3)c(Cc3cccc(Br)c3)cc12: 8.42

Would you kindly look at the next entry?
Q: Consider the compound shown here: CN(C)c1ccc(-c2nc3ncnc(N)c3cc2-c2ccccc2)cc1 What is its recorded pIC50?
A: 6.46

====

# tested.target: Adenosine kinase (Homo sapiens)
# assay.text: Inhibitory concentration against Adenosine Kinase (enzyme)
reported.endpoint: pIC50
// returns pIC50 (minus log10 of molar concentration), number only

Q: Form field: reported pIC50 of COc1ccc(-c2cc3c(N)ncnc3nc2-c2cccs2)cc1OC
A: 7.42

Q: GET /values?readout=pIC50&item= COc1ccc(-c2cc3c(N)ncnc3nc2-c2ccc(N(C)C)cc2)cc1
A: 7.04

Q: # input molecule: CN(C)c1ccc(-c2ccc3c(N)ncnc3n2)cc1 ; wanted: its pIC50
A: 6.11
